koff values by entry
Molecular target: T1, human IL-33 (R&D Systems, #3625-IL-010/CF) (human, UniProt O95760 112-270)
T1 construct: Commercial recombinant protein; also called hIL-33; interleukin-33
T1 sequence (looked up): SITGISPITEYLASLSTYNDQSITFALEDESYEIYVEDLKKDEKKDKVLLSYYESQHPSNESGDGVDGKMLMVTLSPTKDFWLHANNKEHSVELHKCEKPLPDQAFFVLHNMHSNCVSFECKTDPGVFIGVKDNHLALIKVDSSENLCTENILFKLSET
Assay: SPR 25C pH7.4, mAb captured
Method: Equilibrium dissociation constants (KD values) for IL-33 binding to purified anti-IL-33 monoclonal antibodies were determined using a real-time surface plasmon resonance biosensor using a Biacore 4000 instrument. […] Association of either hIL-33 or MfIL-33-6His to the captured monoclonal antibody was monitored for 4 minutes and their dissociation in ABS-ET running buffer was monitored for 10 minutes. […]
Could you give me the number in s⁻¹? Just the number is fine.

Before answering, review these 2 worked examples.
H1M9559N (antibody, mouse IgG1, V domains shown, Human variable domains, mouse IgG1 Fc (H1M)) VH: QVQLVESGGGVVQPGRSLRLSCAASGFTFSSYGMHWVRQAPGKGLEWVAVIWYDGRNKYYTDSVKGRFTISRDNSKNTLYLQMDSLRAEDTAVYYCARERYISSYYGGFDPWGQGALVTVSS VL: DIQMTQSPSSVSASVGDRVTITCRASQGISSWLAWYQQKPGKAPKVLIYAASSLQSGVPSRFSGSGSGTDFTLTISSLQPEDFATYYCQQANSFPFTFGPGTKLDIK: 0.000274
H4H9662P (antibody, V domains shown, Human IgG4 Fc (H4H)) VH: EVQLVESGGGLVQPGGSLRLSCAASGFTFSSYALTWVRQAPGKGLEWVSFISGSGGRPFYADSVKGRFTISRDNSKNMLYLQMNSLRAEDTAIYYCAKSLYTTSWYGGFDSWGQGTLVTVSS VL: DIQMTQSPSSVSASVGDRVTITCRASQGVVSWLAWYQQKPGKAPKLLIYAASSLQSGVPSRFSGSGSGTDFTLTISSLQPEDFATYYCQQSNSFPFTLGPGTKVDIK: 0.00025

Next:
Read off the recorded koff for H4H9676P (antibody, human IgG4, V domains shown, Human IgG4 Fc (H4H)) VH: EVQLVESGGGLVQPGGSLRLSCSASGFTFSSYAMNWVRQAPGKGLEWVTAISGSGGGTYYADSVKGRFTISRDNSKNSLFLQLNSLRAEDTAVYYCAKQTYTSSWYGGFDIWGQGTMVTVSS VL: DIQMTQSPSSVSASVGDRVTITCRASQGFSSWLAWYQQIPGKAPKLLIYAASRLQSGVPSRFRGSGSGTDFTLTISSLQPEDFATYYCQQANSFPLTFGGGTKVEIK
0.000345
